- assay.method.text: AUC ( 0 to infinity) in Sprague-Dawley rat at 100 mg/kg, ip measured up to 24 hrs by LC-MS analysis
- Format: ADME, organism-based
- Set-up: route intraperitoneal, dose 100 mg/kg, time <=24
- setup.conditions: in vivo
Listing of recorded AUC(0-inf) by entry.
I only need the number, in ng·h/mL, no unit after it.

{"columns": ["sample.smiles", "AUC(0-inf) [ng·h/mL]"],
 "data": [
  ["Cc1c(Cl)cccc1Nc1ccccc1C(=O)Nc1ccc2c(c1)OCO2", 49200]
]}

Now, please, on to the next molecule.
Give the measured AUC(0-inf) of "COc1ccc(NC(=O)c2ccccc2Nc2cccc(Cl)c2C)cc1" .
86200

----------
- target.of.assay: Prostaglandin G/H synthase 2 (Homo sapiens, UniProt P35354)
- assay.method.text: Inhibition of human recombinant COX-2 using arachidonic acid as substrate preincubated 10 mins followed by substrate addition and measured after 2 mins by ELISA
measured.metric: IC50 (µM)
I only need the number, in µM, no unit after it.

Record excerpt, results attached:
{"columns": ["sample.smiles", "target.of.assay", "unit.name", "IC50"],
 "data": [
  ["Cc1c(Cl)cccc1Nc1ccccc1C(=O)Nc1ccc2c(c1)OCO2", "Prostaglandin G/H synthase 2 (Homo sapiens, UniProt P35354)", "µM", 45],
  ["O=C(Nc1ccc2c(c1)OCO2)c1ccccc1Nc1cccc(C(F)(F)F)c1", "Prostaglandin G/H synthase 2 (Homo sapiens, UniProt P35354)", "µM", 105],
  ["COc1ccc(NC(=O)c2ccccc2Nc2cccc(Cl)c2C)cc1", "Prostaglandin G/H synthase 2 (Homo sapiens, UniProt P35354)", "µM", 33.6],
  ["COc1ccc(NC(=O)c2ccccc2Nc2cccc(C)c2C)cc1OC", "Prostaglandin G/H synthase 2 (Homo sapiens, UniProt P35354)", "µM", 48.1]
]}

Now, please, on to the next molecule.
Give the measured IC50 of "COc1ccc(NC(=O)c2ccccc2Nc2cccc(Cl)c2C)cc1OC" .
92.6

----------
- assay.method.text: Drug concentration in Sprague-Dawley rat plasma at 100 mg/kg, ip measured 6 hrs post administration by LC-MS analysis
- Assay type: ADME, organism-based
measured.metric: concentration at 6 h (ng/mL)
I only need the number, in ng/mL, no unit after it.

{"columns": ["sample.smiles", "unit.name", "numeric.readout"],
 "data": [
  ["COc1ccc(NC(=O)c2ccccc2Nc2cccc(Cl)c2C)cc1", "ng/mL", 5790]
]}

Now, please, on to the next molecule.
Give the measured concentration at 6 h of "Cc1c(Cl)cccc1Nc1ccccc1C(=O)Nc1ccc2c(c1)OCO2" .
4990

----------
- target.of.assay: DNA topoisomerase 1 (Homo sapiens)
- assay.method.text: Inhibition of human topoisomerase I using DNA pBR322 as substrate assessed as DNA intercalation at 100 uM incubated for 30 mins by ethidium bromide staining based agarose gel electrophoresis method
Activity calls are given as the source filed them. The calls are words filed in the database; no cut-off is given here.
Response enum: active, inactive

Worked cases, answers included:
{"columns": ["sample.smiles", "assigned.class"],
 "data": [
  ["Cc1c(Cl)cccc1Nc1ccccc1C(=O)Nc1ccc2c(c1)OCO2", "active"],
  ["COc1cc(NS(C)(=O)=O)ccc1Nc1c2ccccc2nc2ccccc12", "active"],
  ["c1ccc(-c2cc(-c3ccccc3)c3ncccc3n2)cc1", "inactive"]
]}

As a next step, examine the compound that follows.
Please share the test call associated with "COc1ccc(NC(=O)c2ccccc2Nc2cccc(Cl)c2C)cc1" .
active

----------
Listing of recorded Tmax by entry.
- assay.method.text: Tmax in Sprague-Dawley rat at 100 mg/kg, ip measured up to 24 hrs by LC-MS analysis
- Assay type: ADME, organism-based
- setup.conditions: in vivo
Reply with a number, then the unit it belongs to.

{"columns": ["sample.smiles", "result"],
 "data": [
  ["COc1ccc(NC(=O)c2ccccc2Nc2cccc(Cl)c2C)cc1", "3.33 h"]
]}

Now, please, on to the next molecule.
Give the measured Tmax of "Cc1c(Cl)cccc1Nc1ccccc1C(=O)Nc1ccc2c(c1)OCO2" .
3.33 h

----------
Quick note: these are IC50 numbers for system: DNA topoisomerase 1 (Homo sapiens, UniProt P11387)
Sequence (P11387 whole entry): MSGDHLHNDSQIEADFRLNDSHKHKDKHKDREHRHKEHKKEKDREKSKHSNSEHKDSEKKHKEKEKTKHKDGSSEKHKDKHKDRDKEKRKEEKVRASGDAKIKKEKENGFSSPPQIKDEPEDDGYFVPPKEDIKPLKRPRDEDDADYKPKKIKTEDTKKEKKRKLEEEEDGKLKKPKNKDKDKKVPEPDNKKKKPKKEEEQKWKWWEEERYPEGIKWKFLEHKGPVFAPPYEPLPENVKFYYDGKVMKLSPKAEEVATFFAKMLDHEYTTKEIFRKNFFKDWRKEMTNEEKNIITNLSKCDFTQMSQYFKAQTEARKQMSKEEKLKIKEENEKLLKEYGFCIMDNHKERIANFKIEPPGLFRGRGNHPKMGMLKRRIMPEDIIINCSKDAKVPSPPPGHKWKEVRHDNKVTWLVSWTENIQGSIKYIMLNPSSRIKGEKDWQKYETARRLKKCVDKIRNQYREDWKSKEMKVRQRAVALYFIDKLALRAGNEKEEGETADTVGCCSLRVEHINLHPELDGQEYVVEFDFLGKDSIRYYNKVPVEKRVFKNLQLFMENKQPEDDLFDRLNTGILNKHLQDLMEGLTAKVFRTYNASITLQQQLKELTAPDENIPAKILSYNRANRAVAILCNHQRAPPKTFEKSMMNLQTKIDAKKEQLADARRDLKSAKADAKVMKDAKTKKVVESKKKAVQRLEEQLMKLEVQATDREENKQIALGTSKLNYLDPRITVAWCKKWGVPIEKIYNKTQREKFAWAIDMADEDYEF
I only need the number, in µM, no unit after it.

Record excerpt, results attached:
{"columns": ["sample.smiles", "IC50 / µM"],
 "data": [
  ["Cc1c(Cl)cccc1Nc1ccccc1C(=O)Nc1ccc2c(c1)OCO2", 47.6],
  ["COc1ccc(NC(=O)c2cccnc2Nc2cccc(C(F)(F)F)c2)cc1", 108],
  ["COc1ccc(CCNC(=O)c2ccccc2Nc2ccccc2)cc1", 107]
]}

GET /values?readout=IC50&system=DNA topoisomerase 1 (Homo sapiens, UniProt P11387)&item= "COc1ccc(NC(=O)c2cccnc2Nc2cccc(Cl)c2C)cc1"
61.2

GET /values?readout=IC50&system=DNA topoisomerase 1 (Homo sapiens, UniProt P11387)&item= "COc1ccc(NC(=O)c2ccccc2Nc2cccc(Cl)c2C)cc1"
33.6

----------
- assay.method.text: Drug concentration in Sprague-Dawley rat brain at 100 mg/kg, ip measured 6 hrs post administration by LC-MS analysis
- Type: ADME, organism-based
- setup.conditions: read-out: Ct
measured.metric: concentration at 6 h (ng/mL)
I only need the number, in ng/mL, no unit after it.

{"columns": ["sample.smiles", "concentration at 6 h / ng/mL"],
 "data": [
  ["Cc1c(Cl)cccc1Nc1ccccc1C(=O)Nc1ccc2c(c1)OCO2", 1410]
]}

Give the measured concentration at 6 h of "COc1ccc(NC(=O)c2ccccc2Nc2cccc(Cl)c2C)cc1" .
3380

----------
- assay.method.text: Acute toxicity in ip dosed Kunming mouse assessed as lethal dose measured after 14 days
- Format: organism-based
- setup.conditions: in vivo, time 14 day
Listing of recorded LD50 at 336 h by entry.
I only need the number, in mg/kg, no unit after it.

{"columns": ["sample.smiles", "LD50 at 336 h (mg/kg)"],
 "data": [
  ["COc1ccc(NC(=O)c2ccccc2Nc2cccc(Cl)c2C)cc1", 300]
]}

Now, please, on to the next molecule.
Give the measured LD50 at 336 h of "Cc1c(Cl)cccc1Nc1ccccc1C(=O)Nc1ccc2c(c1)OCO2" .
750

----------
- assay.method.text: Half life in Sprague-Dawley rat at 100 mg/kg, ip measured up to 24 hrs by LC-MS analysis
- Assay type: ADME, organism-based
- setup.conditions: in vivo
measured.metric: half-life
Reply with a number, then the unit it belongs to.

Give the measured half-life of "Cc1c(Cl)cccc1Nc1ccccc1C(=O)Nc1ccc2c(c1)OCO2" .
8.36 h

Give the measured half-life of "COc1ccc(NC(=O)c2ccccc2Nc2cccc(Cl)c2C)cc1" .
6.7 h

----------
- assay.method.text: AUC (0 to t) in Sprague-Dawley rat at 100 mg/kg, ip measured up to 24 hrs by LC-MS analysis
- Format: ADME, organism-based
- Set-up: route intraperitoneal, dose 100 mg/kg, time <=24
- setup.conditions: in vivo
measured.metric: AUC(0-t) at 24 h (ng·h/mL)
I only need the number, in ng·h/mL, no unit after it.

{"columns": ["sample.smiles", "measured.metric", "unit.name", "numeric.readout"],
 "data": [
  ["Cc1c(Cl)cccc1Nc1ccccc1C(=O)Nc1ccc2c(c1)OCO2", "AUC(0-t) at 24 h", "ng·h/mL", 46200]
]}

Now, please, on to the next compound.
Give the measured AUC(0-t) at 24 h of "COc1ccc(NC(=O)c2ccccc2Nc2cccc(Cl)c2C)cc1" .
78400

----------
- target.of.assay: Prostaglandin G/H synthase 2 (Homo sapiens, UniProt P35354)
- Sequence (P35354 whole entry): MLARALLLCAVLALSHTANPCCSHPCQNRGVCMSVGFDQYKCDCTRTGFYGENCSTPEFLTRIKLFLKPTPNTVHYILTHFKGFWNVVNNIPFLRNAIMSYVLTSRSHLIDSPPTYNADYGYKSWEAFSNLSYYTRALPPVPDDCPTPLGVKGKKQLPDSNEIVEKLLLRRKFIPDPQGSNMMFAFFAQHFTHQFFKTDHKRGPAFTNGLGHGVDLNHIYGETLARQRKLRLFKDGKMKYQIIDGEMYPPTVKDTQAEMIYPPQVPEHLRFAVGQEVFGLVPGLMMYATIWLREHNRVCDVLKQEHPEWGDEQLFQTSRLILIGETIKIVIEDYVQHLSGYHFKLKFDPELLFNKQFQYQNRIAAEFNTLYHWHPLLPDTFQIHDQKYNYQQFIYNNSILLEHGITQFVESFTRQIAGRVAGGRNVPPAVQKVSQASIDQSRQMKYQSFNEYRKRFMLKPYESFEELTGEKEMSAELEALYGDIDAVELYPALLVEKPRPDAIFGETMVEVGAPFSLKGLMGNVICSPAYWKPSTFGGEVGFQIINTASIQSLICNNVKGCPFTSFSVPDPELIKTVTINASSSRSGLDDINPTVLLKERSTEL
- assay.method.text: Inhibition of human recombinant COX-2 using arachidonic acid as substrate preincubated 10 mins followed by substrate addition and measured after 2 mins by ELISA
pIC50: −log10 of the molar value.
Listing of recorded pIC50 by entry.

Record excerpt, results attached:
{"columns": ["sample.smiles", "pIC50"],
 "data": [
  ["COc1ccc(NC(=O)c2cccnc2Nc2cccc(Cl)c2C)cc1", "< 3.82"],
  ["COc1ccc(NC(=O)c2ccccc2NCc2ccccc2)cc1", "< 3.82"]
]}

Give the measured pIC50 of "COc1ccc(NC(=O)c2ccccc2Nc2cccc(C(F)(F)F)c2)cc1OC" .
< 3.82

Give the measured pIC50 of "COc1ccc(NC(=O)c2ccccc2Nc2cccc(C)c2C)cc1" .
< 3.82
